Tested on: Bartonella bacilliformis
testProtocol: Expected efficacy of antibiotic agents
measurementParameters: expected efficacy against Bartonella bacilliformis
parameter: Efficacy

CN[C@H](CC(C)C)C(=O)N[C@H]1C(=O)N[C@@H](CC(N)=O)C(=O)N[C@H]2C(=O)N[C@H]3C(=O)N[C@H](C(=O)N[C@H](C(=O)O)c4cc(O)cc(O)c4-c4cc3ccc4O)[C@H](O)c3ccc(c(Cl)c3)Oc3cc2cc(c3O[C@@H]2O[C@H](CO)[C@@H](O)[C@H](O)[C@H]2O[C@H]2C[C@](C)(N)[C@H](O)[C@H](C)O2)Oc2ccc(cc2Cl)[C@H]1O [Vancomycin]    no
CC[C@H]1OC(=O)[C@H](C)[C@@H](O[C@H]2C[C@@](C)(OC)[C@@H](O)[C@H](C)O2)[C@H](C)[C@@H](O[C@@H]2O[C@H](C)C[C@H](N(C)C)[C@H]2O)[C@](C)(O)C[C@@H](C)CN(C)[C@H](C)[C@@H](O)[C@]1(C)O [Azithromycin]    yes
C/C(=C\C(=O)OCCCCCCCCC(=O)O)C[C@@H]1OC[C@H](C[C@@H]2O[C@H]2[C@@H](C)[C@H](C)O)[C@@H](O)[C@H]1O [Bactroban]    no
O=C(O)c1cn(C2CC2)c2cc(N3CCNCC3)c(F)cc2c1=O [Ciprofloxacin, ciprofloxacin]    yes

Cited source: patent US20170173002A1
